The reported numbers originate from patent US20230203155A1.

TEST_TARGET: T1, rat serum albumin (rat, UniProt P02770 25-608)
T1 construct: also called RSA
T1 sequence (P02770 25-608 limits assumed): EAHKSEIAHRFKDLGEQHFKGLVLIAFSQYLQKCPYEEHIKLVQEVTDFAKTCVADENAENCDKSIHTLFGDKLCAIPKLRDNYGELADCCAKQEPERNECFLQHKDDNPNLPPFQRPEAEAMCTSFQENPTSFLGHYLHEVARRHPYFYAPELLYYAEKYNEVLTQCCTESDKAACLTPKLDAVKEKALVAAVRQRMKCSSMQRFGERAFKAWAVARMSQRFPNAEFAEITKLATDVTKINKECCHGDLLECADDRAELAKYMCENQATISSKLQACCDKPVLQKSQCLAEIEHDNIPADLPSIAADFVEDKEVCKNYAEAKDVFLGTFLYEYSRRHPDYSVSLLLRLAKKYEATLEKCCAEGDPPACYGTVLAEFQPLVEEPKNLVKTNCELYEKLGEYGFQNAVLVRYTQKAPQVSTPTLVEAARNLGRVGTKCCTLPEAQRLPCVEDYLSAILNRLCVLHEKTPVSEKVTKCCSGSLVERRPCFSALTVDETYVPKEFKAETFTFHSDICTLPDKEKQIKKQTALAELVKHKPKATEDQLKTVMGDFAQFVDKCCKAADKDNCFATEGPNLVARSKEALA
ASSAY_NOTES: SPR, albumin on chip, pH 7.4;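 note: Human, mouse, rat and cynomolgus serum albumins amine-coupled to carboxyl sensor chips, with a hen egg lysozyme surface measured in parallel as negative control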
EXPERIMENTAL_ENDPOINT: Kd (nM)
Quick note: give the figure in nM, leave out the unit.

The examples below pair each entry with its known result.
BA11 (humanised HSA-binding VNAR) (VNAR, VNAR) VNAR: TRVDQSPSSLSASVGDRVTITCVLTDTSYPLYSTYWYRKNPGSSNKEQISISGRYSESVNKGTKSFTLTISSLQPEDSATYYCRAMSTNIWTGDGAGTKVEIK	2.97
BA11 C-terminal thiol derivative (VNAR, C-terminal thiol (intein cleavage with cysteamine), also called BA11-SH) VNAR: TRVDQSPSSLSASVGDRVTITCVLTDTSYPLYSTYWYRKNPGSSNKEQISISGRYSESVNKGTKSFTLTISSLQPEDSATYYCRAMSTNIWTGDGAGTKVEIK	7.67
BA11-C term thiol-maleimide-peg-fluorescein (VNAR, C-terminal thiol conjugated to maleimide-peg-fluorescein, also called BA11-S-mal-Fl) VNAR: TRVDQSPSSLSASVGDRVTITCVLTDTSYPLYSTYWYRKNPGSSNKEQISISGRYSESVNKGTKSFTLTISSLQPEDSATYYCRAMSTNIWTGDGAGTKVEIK	5.3
BA11 C-terminal cysteine derivative (VNAR, additional C-terminal cysteine (intein cleavage with cysteine), also called BA11-cys) VNAR: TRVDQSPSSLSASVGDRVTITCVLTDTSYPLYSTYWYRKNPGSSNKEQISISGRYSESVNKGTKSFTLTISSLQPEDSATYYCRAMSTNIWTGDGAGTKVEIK	3.37
BA11-oxime-fluorescein (VNAR, C-terminal oxime-linked benzaldehyde-peg-fluorescein) VNAR: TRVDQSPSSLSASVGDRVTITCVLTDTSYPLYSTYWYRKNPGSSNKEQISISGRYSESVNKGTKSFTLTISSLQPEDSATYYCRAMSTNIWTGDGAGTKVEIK	5.72

Request the reported Kd associated with BA11-C terminal cysteine-maleimide-peg-fluorescein (VNAR, C-terminal cysteine conjugated to maleimide-peg-fluorescein, also called BA11-cys-mal-Fl) VNAR: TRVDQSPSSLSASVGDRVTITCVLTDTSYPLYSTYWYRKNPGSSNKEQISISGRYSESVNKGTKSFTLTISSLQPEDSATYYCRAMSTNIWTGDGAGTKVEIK
4.78

What would you report for BA11-aminoxy (VNAR, C-terminal aminoxy (intein cleavage with dioxyamine)) VNAR: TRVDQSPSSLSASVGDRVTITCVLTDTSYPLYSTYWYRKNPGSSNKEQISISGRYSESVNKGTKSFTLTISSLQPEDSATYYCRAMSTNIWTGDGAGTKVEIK ?
10.8
